# assay procedure: NCI Yeast Anticancer Drug Screen. Data for the rad50 strain (AID 155);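 further: 0% = growth of vehicle-only cultures of the same strain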
# assay conditions: S. cerevisiae rad50 strain growth inhibition; at 50.0 µM; hits give high values
About 79,000 compounds went through this panel and 15% of them were active in at least one assay; those are over-represented in the sample as a whole.
The following compounds are listed with their measured growth inhibition values.
Number only, in %; omit the unit.

Completed entries (count: 5):
{"compound": "O=S(=O)(N/N=C(/CC/C(=N\\NS(=O)(=O)c1ccccc1)c1ccccc1)c1ccccc1)c1ccccc1", "growth inhibition [%]": 27.7}
{"compound": "COC(=O)CC1C=CC(OC)[C@@]2(C)C(=O)C=C(C)C(=O)[C@@H]12 (some centres not stated)", "growth inhibition [%]": 4.85}
{"compound": "O=c1[nH]nc(SCc2ccccc2)c2nncn12", "growth inhibition [%]": 2.45}
{"compound": "COc1cc2c(cc1OCc1ccccc1)C(c1cc(OC)c(OC)c(OC)c1)=C1C(=O)OCC1C2 (configuration not stated)", "growth inhibition [%]": 9.4}
{"compound": "COc1cccc(C=Nc2cc(C)ccn2)c1O.COc1cccc(C=Nc2cc(C)ccn2)c1O.[Cu]", "growth inhibition [%]": 3.45}

Please report the recorded growth inhibition for O=[N+]([O-])/C(C(Cl)=C(Cl)Cl)=C(\SCc1ccccc1)N1CCCCC1 . -25.6

Item: Cc1ccc(S(=O)(=O)N2CCC(N)=N2)cc1 4.8

* * *

# assay procedure: NCI Yeast Anticancer Drug Screen. Data for the sgs1 mgt1 strain (AID 161);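 further: 0% = growth of cultures given vehicle only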
# assay conditions: S. cerevisiae sgs1 mgt1 strain, at 50.0 µM, hits give high values
The panel holds about 79,000 compounds, 15% with a hit somewhere; the sample as a whole holds those more often.
The following compounds are listed with their measured growth inhibition values.
Number only, in %; omit the unit.

Completed entries (count: 8):
{"compound": "O=C(Sc1ccccc1)C1OC1c1ccccc1 (configuration not stated)", "meas value": 22.6}
{"compound": "Nc1ncnc2c1ncn2C1CCC(CP(=O)(O)O)C1 (configuration not stated)", "meas value": -23.4}
{"compound": "CCOC(=O)/C(C)=C/CC1=C(O)c2ccccc2C(=O)C1=O", "meas value": 14.1}
{"compound": "CCC(=O)Oc1ccc(C(OC(=O)CC)OC(=O)CC)cc1OC", "meas value": 11.8}
{"compound": "CCc1cccc(C(C)(C)C)c1NC(=S)NC=C(C#N)C#N", "meas value": 36.8}
{"compound": "COC(=O)c1cc(-c2ccc3ccccc3c2)[nH]c(=O)c1C#N", "meas value": 65.6}
{"compound": "O=C1CC2(CCc3ccccc32)C(=O)N1CN1CCN(c2ccccn2)CC1 (configuration not stated)", "meas value": -10}
{"compound": "OCCCOC(c1ccccc1)(c1ccccc1)c1ccccc1", "meas value": -30.2}

Please report the recorded growth inhibition for CCOC(=O)c1cnc2c(ccc3ncccc32)c1Cl . 15.8

Item: CCOC(=O)C(C(=O)OCC)C(C(=O)OCC)C(=O)OCC -6.2

Item: Cc1noc(-c2ccccc2)c1N=Nc1ccccc1 28.1

* * *

# assay procedure: NCI Yeast Anticancer Drug Screen. Data for the rad50 strain (AID 155);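 further: 0% = growth of vehicle-only cultures of the same strain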
# assay conditions: S. cerevisiae rad50 strain growth inhibition; at 50.0 µM; hits give high values
About 79,000 compounds went through this panel and 15% of them were active in at least one assay; those are over-represented in the sample as a whole.
The following compounds are listed with their measured growth inhibition values.
Number only, in %; omit the unit.

{"compound": "CC(=O)NNc1ccc(C(=O)O)cc1", "meas value": 13.2}
{"compound": "CC(C)(C)OC(=O)N/N=C\\c1ccnc2ccccc12", "meas value": -8.1}
{"compound": "O=C(C(=O)c1cc(-c2ccccc2)nc2ccc3ccccc3c12)c1ccccc1", "meas value": -24.3}

Please report the recorded growth inhibition for Cc1cnc(-c2ccccc2)o1 . 8.7

Item: Cc1ccccc1C(=O)OC1CCCC1 13.1

Item: N#CC(=S)N(C(=O)c1ccc(Cl)cc1)c1ccccc1Cl -1.4

Item: Cc1c(CO)[n+](=O)c2ccccc2n1[O-] 30.4

Item: COc1c(O)c2c3c(cc(C)cc3c1C(C)C)OC2 93.3
